Target: Furin (108-574-Tev-Flag-His) enzyme (Homo sapiens, UniProt P09958)
Construct: Furin (108-574-Tev-Flag-His) enzyme was expressed and purified from CHO cells; TEV cleavage site (C); FLAG (C); His (C); made in house; host or cells: CHO cells
Sequence (P09958 108-574): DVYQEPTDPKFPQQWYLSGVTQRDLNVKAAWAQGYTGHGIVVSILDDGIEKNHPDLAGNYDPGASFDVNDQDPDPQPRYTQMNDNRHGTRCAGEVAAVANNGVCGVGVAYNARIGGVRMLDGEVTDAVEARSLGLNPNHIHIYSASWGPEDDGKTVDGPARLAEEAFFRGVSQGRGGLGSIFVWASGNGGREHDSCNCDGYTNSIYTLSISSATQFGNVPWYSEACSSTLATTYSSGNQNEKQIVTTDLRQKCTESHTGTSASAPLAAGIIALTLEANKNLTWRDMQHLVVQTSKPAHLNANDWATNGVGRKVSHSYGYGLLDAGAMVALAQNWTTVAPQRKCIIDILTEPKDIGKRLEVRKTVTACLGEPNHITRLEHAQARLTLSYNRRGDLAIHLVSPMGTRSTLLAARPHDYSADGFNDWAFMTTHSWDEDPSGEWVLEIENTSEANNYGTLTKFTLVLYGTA
Assay: Furin enzyme assay
Assay type: biochemical
Structures can show the parent of a compound that is named as a salt.
Response field label takes true (1) when furin enzyme pIC50 is strictly below 9 and false (0) in all other cases.

Problem: # TODO verify furin enzyme pIC50 < 9 strictly for this compound: CNCc1cc(Oc2ccc(NCCCN)nc2)cc(-c2cc(Cl)cc(Cl)c2)c1
Result: true (1)

Problem: Given C[C@@H](CC1CCN(Cc2cc(Oc3ccc(N4CCN(C)CC4)nn3)nc(-c3cc(Cl)cc(Cl)c3)c2)CC1)C(=O)O , is recorded furin enzyme pIC50 strictly lower than 9?
Result: false (0)

Problem: Strictly below 9: is that where furin enzyme pIC50 of CN1C[C@@H]2C[C@H]1CN2c1ccc(Oc2cc(CN3CCC(CC(=O)O)CC3)cc(-c3cc(Cl)cc(Cl)c3)n2)cn1 sits?
Result: true (1)

Problem: For the compound C[C@]1(O)C[C@@H](N2CCN(c3ncc(Oc4cc(CN5CCC(CC(=O)O)CC5)cc(-c5cc(Cl)cc(Cl)c5)n4)cn3)CC2)C1 , is furin enzyme pIC50 under 9?
Result: true (1)

Problem: Please check: furin enzyme pIC50 for O=C(O)CC1CCN(Cc2cc(Oc3ccc(N4CCNCC4)nc3)nc(-c3cc(Cl)cc(Cl)c3)c2)CC1 [Example 4, hydrochloride] , strictly under 9 or not?
Result: true (1)

----------
Molecular target: furin (endogenous protease) in U20S cells (Homo sapiens, UniProt P09958)
Construct: the endogenous protease cleaves GFP; endogenous in cells; host or cells: U2OS cells transduced with a BacMam reporter
Sequence (P09958 108-794): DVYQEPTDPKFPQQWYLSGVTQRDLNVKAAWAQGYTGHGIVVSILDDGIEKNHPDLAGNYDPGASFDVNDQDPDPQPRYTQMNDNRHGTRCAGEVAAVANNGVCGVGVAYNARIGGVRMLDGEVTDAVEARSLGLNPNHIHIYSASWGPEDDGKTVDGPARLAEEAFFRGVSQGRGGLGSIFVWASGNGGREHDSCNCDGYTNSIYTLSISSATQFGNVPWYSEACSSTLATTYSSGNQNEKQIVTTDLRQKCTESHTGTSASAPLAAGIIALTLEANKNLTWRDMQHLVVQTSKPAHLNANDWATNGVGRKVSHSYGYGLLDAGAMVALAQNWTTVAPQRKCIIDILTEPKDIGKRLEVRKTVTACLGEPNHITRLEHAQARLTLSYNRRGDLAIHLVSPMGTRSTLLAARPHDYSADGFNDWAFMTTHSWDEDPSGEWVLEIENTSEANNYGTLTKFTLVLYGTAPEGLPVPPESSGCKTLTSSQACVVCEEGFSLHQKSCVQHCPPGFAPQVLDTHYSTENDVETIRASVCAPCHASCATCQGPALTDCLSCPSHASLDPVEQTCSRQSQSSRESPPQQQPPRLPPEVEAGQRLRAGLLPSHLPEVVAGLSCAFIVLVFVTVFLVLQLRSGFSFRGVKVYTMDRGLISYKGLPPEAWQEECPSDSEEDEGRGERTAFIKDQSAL
Assay: Furin cell-based assay (image-based, Golgi-targeted GFP with BMP10 furin/PCSK cleavage site)
Conditions: 24-hour incubation, read-out: furin golgi cell pXC50 (converted)
Where a name gives a salt, the structure may show the parent alone.
# key: entry, value: EC50
# output: bare number, implied unit µM

CNCc1cc(Oc2cnc(N3CCN(CCCS(C)(=O)=O)CC3)nc2)nc(-c2cc(Cl)cc(Cl)c2)c1 | 0.0126
CC(CCN1CCN(c2ncc(Oc3cc(CN4CCC(CC(=O)O)CC4)cc(-c4cc(Cl)cc(Cl)c4)n3)cn2)CC1)[S+](C)[O-] (stereo not shown) | 0.0316
CC(=O)NCC1CCN(Cc2cc(Oc3ccc(N4CCN(CCP(=O)(O)O)CC4)nc3)nc(-c3cc(Cl)cc(Cl)c3)c2)CC1 | 0.501
CNC(=O)NCC1CCN(Cc2cc(Oc3cnc(N4CCN(CCC(C)S(C)(=O)=O)CC4)nc3)nc(-c3cc(Cl)cc(Cl)c3)c2)CC1 (stereo not shown) | 0.00251
CC(=O)NCC1CCN(Cc2cc(Oc3ccc(N4CCC(N)C(C)(C)C4)nc3)nc(-c3cc(Cl)cc(Cl)c3)c2)CC1 (stereo not shown) | 0.002
C[N+](C)([O-])CCC1CCN(Cc2cc(Oc3ccc(N4CCNCC4)nc3)nc(-c3cc(Cl)cc(Cl)c3)c2)CC1 | 0.0158
CS(=O)(=O)N[C@H]1[C@@H]2CCN(Cc3cc(Oc4cnc(N5CCN(CCC(=O)O)CC5)nc4)nc(-c4cc(Cl)cc(Cl)c4)c3)CC[C@@H]21 | 0.00794
O=C(O)CC1CCN(Cc2cc(Oc3cnc(N4CC5CCC(C4)N5)nc3)nc(-c3cc(Cl)cc(Cl)c3)c2)CC1 | 0.01
CC(=O)NCC1CCN(Cc2cc(Oc3ccc(NCC(C)(C)N)nc3)cc(-c3cc(Cl)cc(Cl)c3)c2)CC1 [Example 105, hydrochloride] | 0.126
CN1CCN(c2ncc(Oc3cc(CN4CCC(CCO)CC4)cc(-c4cc(Cl)cc(Cl)c4)n3)cn2)CC1 | 0.00126

Problem: Give EC50 for this entry on furin (endogenous protease) in U20S cells (Homo sapiens, UniProt P09958): CC(=O)NCC1CCN(Cc2cc(Oc3cnc(N4CCN(CCC(=O)O)CC4)cn3)nc(-c3cc(Cl)cc(Cl)c3)c2)CC1
Result: 0.158

Problem: // fetch EC50 for CCC(CN1CCN(c2ccc(Oc3cc(CN4CCC(CNC(C)=O)CC4)cc(-c4cc(Cl)cc(Cl)c4)n3)cn2)CC1)C(=O)O (stereo not shown) ; system: furin (endogenous protease) in U20S cells (Homo sapiens, UniProt P09958)
Result: 0.0501

Problem: Provide EC50, tested on furin (endogenous protease) in U20S cells (Homo sapiens, UniProt P09958), for CC(=O)NC(=O)OCC1CCN(Cc2cc(Oc3cnc(N4CCN(C)CC4)nc3)nc(-c3cc(Cl)cc(Cl)c3)c2)CC1 .
Result: 0.0158

----------
System: hydroxyproline (a specific marker for collagen) in mouse lung
Test: Bleomycin induced lung fibrosis model: hydroxyproline assay
Format: in vivo
Settings: 10 mg/kg, Oral, Once daily; relative to levels induced by Bleomycin in vehicle treated animals; *p < 0.05
readout name: % inhibition of hydroxyproline in lung (%)
Field format: number, assumed %, no unit text.

Worked examples, 3 compounds total:
O=C(O)CC1CCN(Cc2cc(Oc3cnc(N4CCN(CCO)CC4)nc3)nc(-c3cc(Cl)cc(Cl)c3)c2)CC1 | 11
O=C(O)CC1CCN(Cc2cc(Oc3cnc(N4CCNCC4)nc3)nc(-c3cc(Cl)cc(Cl)c3)c2)CC1 | 6
CS(=O)(=O)CCCN1CCN(c2ncc(Oc3cc(CN4CCC(CC(=O)O)CC4)cc(-c4cc(Cl)cc(Cl)c4)n3)cn2)CC1 | −1

Switching to the query record.
Problem: Specify % inhibition of hydroxyproline in lung for CN1CCN(c2cnc(Oc3cc(CN4CCC(CC(=O)O)CC4)cc(-c4cc(Cl)cc(Cl)c4)n3)cn2)CC1 , system hydroxyproline (a specific marker for collagen) in mouse lung.
Result: 4

----------
Target: furin (endogenous protease) in U20S cells (Homo sapiens)
Construct: the endogenous protease cleaves GFP; endogenous in cells; host or cells: U2OS cells transduced with a BacMam reporter
Assay: Furin cell-based assay (image-based, Golgi-targeted GFP with BMP10 furin/PCSK cleavage site);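 note: Read-out is mean GFP fluorescence of Golgi puncta per cell by high-content imaging, retained when furin inhibited, over an eleven-point 0.00017–10 µM series, four-parameter fit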
Settings: 24-hour incubation, read-out: furin golgi cell pXC50 (converted)
// assign satisfied if EC50 falls strictly below 3 nM, else not satisfied (ties count as not satisfied)

Some solved entries appear below for comparison.
CC(=O)NCC1CCN(Cc2cc(Oc3ccc(N4CCN(CCC(C)S(C)(=O)=O)CC4)nc3)nc(-c3cc(Cl)cc(Cl)c3)c2)CC1 (stereo not drawn) | satisfied
NS(=O)(=O)CC1CCN(Cc2cc(Oc3ccc(N4CCN(CCC(=O)O)CC4)nc3)nc(-c3cc(Cl)cc(Cl)c3)c2)CC1 | not satisfied
CC(=O)NCC1CCN(Cc2cc(Oc3ccc(N4CCN(C(C)CC(=O)O)CC4)nc3)nc(-c3cc(Cl)cc(Cl)c3)c2)CC1 (stereo not drawn) | not satisfied
O=C(O)CC1CCN(Cc2cc(Oc3cnc(N4CCNC5(CC5)C4)nc3)nc(-c3cc(Cl)cc(Cl)c3)c2)CC1 | not satisfied
CC(=O)NCC1CCN(Cc2cc(Oc3cnc(N4CCN(CC(C)(C)O)CC4)nc3)nc(-c3cc(Cl)cc(Cl)c3)c2)CC1 | satisfied

Consider the additional compound presented here.
Problem: # check: EC50 < 3 nM for CN1CCN(c2ncc(Oc3cc(CN4CCC(NC(=O)NS(C)(=O)=O)CC4)cc(-c4cc(Cl)cc(Cl)c4)n3)cn2)CC1
Result: not satisfied

----------
Biological target: Furin (108-574-Tev-Flag-His) enzyme (Homo sapiens, UniProt P09958)
Construct: Furin (108-574-Tev-Flag-His) enzyme was expressed and purified from CHO cells; TEV cleavage site (C); FLAG (C); His (C); made in house; host or cells: CHO cells
Test: Furin enzyme assay
Format: biochemical
Structures can show the parent of a compound that is named as a salt.
readout name: furin enzyme pIC50
# output: bare number, no unit

Reference set, count: 6
CC(CCN1CCN(c2cnc(Oc3cc(CN4CCC(CCO)CC4)cc(-c4cc(Cl)cc(Cl)c4)n3)cn2)CC1)C(=O)O (stereo not shown) | 8.8
CC(=O)NCC1CCN(Cc2cc(Oc3cnc(N4CCN(CCC(N)=O)CC4)nc3)nc(-c3cc(Cl)cc(Cl)c3)c2)CC1 | 9.1
CC(=O)NCC1CCN(Cc2cc(Oc3cnc(N4CCN(CCC(N)=O)CC4)cn3)nc(-c3cc(Cl)cc(Cl)c3)c2)CC1 | 8.7
CN1CCN(c2cnc(Oc3cc(CN4CCC(CC(=O)O)CC4)cc(-c4cc(Cl)cc(Cl)c4)n3)cn2)CC1 | 8.7
CS(=O)(=O)CCCN1CCN(c2cnc(Oc3cc(CN4CCC(CC(=O)O)CC4)cc(-c4cc(Cl)cc(Cl)c4)n3)cn2)CC1 | 8.1
O=C(O)CC1CCN(Cc2cc(Oc3ccc(N4CCN(CCO)CC4)nc3)nc(-c3cc(Cl)cc(Cl)c3)c2)CC1 | 9.1

Problem: Note furin enzyme pIC50 for the molecule shown: COC(=O)NCC1CCN(Cc2cc(Oc3cnc(N4CCNCC4)nc3)nc(-c3cc(F)cc(Cl)c3)c2)CC1
Result: 8.3

Problem: State its furin enzyme pIC50 for this molecule: CS(=O)(=O)CCCN1CCN(c2ccc(Oc3cc(CN4CCC(CC(N)=O)CC4)cc(-c4cc(Cl)cc(Cl)c4)n3)cn2)CC1
Result: 8.6

Problem: Hello, please tell me recorded furin enzyme pIC50 for this one: CC(=O)NCC1CCN(Cc2cc(Oc3ccc(N4CCN(CCC(C)S(C)(=O)=O)CC4)nc3)nc(-c3cc(Cl)cc(Cl)c3)c2)CC1 (stereo not shown)
Result: 10.1

Problem: Could you please provide reported furin enzyme pIC50 for CC(=O)NCC1CCN(Cc2cc(Oc3cnc(N)c(F)c3)cc(-c3cc(Cl)cc(Cl)c3)c2)CC1 [Example 46, hydrochloride] ? Thanks!
Result: 7

Problem: Could you please provide reported furin enzyme pIC50 for NC(=O)CC1CCN(Cc2cc(Oc3cnc(N4CCNCC4)nc3)nc(-c3cc(Cl)cc(Cl)c3)c2)CC1 [Example 86, hydrochloride] ? Thanks!
Result: 8.9

Problem: Write down furin enzyme pIC50 measured for item CNC(=O)NCC1CCN(Cc2cc(Oc3cnc(N4CCN(C(C)CCS(C)(=O)=O)CC4)nc3)nc(-c3cc(Cl)cc(Cl)c3)c2)CC1 (stereo not shown)
Result: 10.7

Problem: Determine from records and report furin enzyme pIC50 for CC(=O)NCC1CCN(Cc2cc(Oc3cnc(N4CCN(CCC(=O)O)CC4)c(F)c3)nc(-c3cc(Cl)cc(Cl)c3)c2)CC1
Result: 8.7
